All figures here come from ChEMBL document CHEMBL4049391.

- experiment: Inhibition of rat microsomal SOAT assessed as reduction in cholesteryl oleate formation from oleoyl co-enzyme A pretreated for 15 mins followed by oleoyl co-enzyme A addition after 10 mins by HPTLC method
Flag rule - IC50 less than 40 µM flags true; the remaining entries get false.

{"chemical_string": "Cc1nc(-c2ccc(F)cc2)c(-c2ccc(NC(=O)Nc3ccc(F)cc3F)cc2)s1", "cat": "false"}
{"chemical_string": "CCCCNC(=O)Nc1nc(-c2ccc(OC)cc2)c(-c2ccc(Cl)cc2)s1", "cat": "false"}
{"chemical_string": "CCc1cccc(CC)c1NC(=O)Nc1ccc(-c2sc(C)nc2-c2ccc(OC)cc2)cc1", "cat": "false"}
{"chemical_string": "CCCCNC(=O)Nc1ccc(-c2sc(C)nc2-c2ccc(C)cc2)cc1", "cat": "true"}
{"chemical_string": "CCCCNC(=O)Nc1ccc(-c2sc(C)nc2-c2ccc(Cl)cc2)cc1", "cat": "true"}

###

- Species on record: Rattus norvegicus
- experiment: Inhibition of rat microsomal SOAT assessed as reduction in cholesteryl oleate formation from oleoyl co-enzyme A at 10 uM pretreated for 15 mins followed by oleoyl co-enzyme A addition measured after 10 mins by HPTLC method relative to control

{"chemical_string": "CCCCCCCCCCCCNC(=O)Nc1ccc(-c2sc(C)nc2-c2ccc(Cl)cc2)cc1", "inhibition": "5.75%"}
{"chemical_string": "O=C(Nc1ccc(-c2nonc2-c2ccc(F)cc2)cc1)Nc1ccc(F)cc1F", "inhibition": "47.1%"}
{"chemical_string": "Cc1ccc(-c2nc(NC(=O)Nc3ccc(F)cc3F)sc2-c2ccc(NS(C)(=O)=O)cc2)cc1", "inhibition": "2.17%"}
{"chemical_string": "COc1cc(NC(=O)Nc2ccc(-c3sc(C)nc3-c3ccc(Cl)cc3)cc2)cc(OC)c1OC", "inhibition": "24.4%"}
{"chemical_string": "O=C(Nc1nc(-c2ccc(Cl)cc2)c(-c2ccc([N+](=O)[O-])cc2)s1)Nc1ccc(F)cc1F", "inhibition": "3.28%"}
{"chemical_string": "CCCCCCCCCCCCNc1ccc(-c2sc(NC(=O)Nc3ccc(F)cc3F)nc2-c2ccc(OC)cc2)cc1", "inhibition": "1.77%"}
{"chemical_string": "Cc1ccc(-c2nonc2-c2ccc(NC(=O)Nc3ccc(F)cc3F)cc2)cc1", "inhibition": "13.5%"}
{"chemical_string": "COc1cc(NC(=O)Nc2ccc(-c3sc(C)nc3-c3ccc(C)cc3)cc2)cc(OC)c1OC", "inhibition": "21.9%"}
{"chemical_string": "O=C(Nc1nc(-c2ccc(F)cc2)c(-c2ccc([N+](=O)[O-])cc2)s1)Nc1ccc(F)cc1F", "inhibition": "3.59%"}

###

Readings of IC50 for the listed molecules
- experiment: Inhibition of rat microsomal SOAT assessed as reduction in cholesteryl oleate formation from oleoyl co-enzyme A pretreated for 15 mins followed by oleoyl co-enzyme A addition after 10 mins by HPTLC method

{"chemical_string": "CCCCCCCNC(=O)Nc1ccc(-c2sc(C)nc2-c2ccc(Cl)cc2)cc1", "IC50, µM": 7.85}
{"chemical_string": "COc1ccc(-c2nc(NC(=O)Nc3ccc(F)cc3F)sc2-c2ccc(NC(C)=O)cc2)cc1", "IC50, µM": 31.9}
{"chemical_string": "COc1ccc(-c2nc(NC(=O)Nc3ccc(F)cc3F)sc2-c2ccc(NC(C)C)cc2)cc1", "IC50, µM": 12.1}
{"chemical_string": "CCCCCCCCCCCCNC(=O)Nc1ccc(-c2nonc2-c2ccc(F)cc2)cc1", "IC50, µM": 12.4}
{"chemical_string": "Cc1nc(-c2ccc(Cl)cc2)c(-c2ccc(NC(=O)NCCN3CCOCC3)cc2)s1", "IC50, µM": 118}
{"chemical_string": "Cc1nc(-c2ccc(F)cc2)c(-c2ccc(NC(=O)Nc3c(C(C)C)cccc3C(C)C)cc2)s1", "IC50, µM": 11.8}
{"chemical_string": "COc1ccc(-c2nc(C)sc2-c2ccc(NC(=O)Nc3ccccc3)cc2)cc1", "IC50, µM": 94.8}

###

- Species: Rattus norvegicus
- experiment: Inhibition of rat microsomal SOAT assessed as reduction in cholesteryl oleate formation from oleoyl co-enzyme A at 10 uM pretreated for 15 mins followed by oleoyl co-enzyme A addition measured after 10 mins by HPTLC method relative to control

{"chemical_string": "Cc1nc(-c2ccc(Cl)cc2)c(-c2ccc(NC(=O)Nc3ccccc3)cc2)s1", "inhibition": "6.88%"}
{"chemical_string": "COc1ccc(-c2nc(NC(=O)Nc3ccc(F)cc3F)sc2-c2ccc(Cl)cc2)cc1", "inhibition": "2.98%"}
{"chemical_string": "COc1ccc(-c2nc(C)sc2-c2ccc(NC(=O)Nc3c(C(C)C)cccc3C(C)C)cc2)cc1", "inhibition": "30.1%"}
{"chemical_string": "CCCCCCCNC(=O)Nc1ccc(-c2sc(C)nc2-c2ccc(Cl)cc2)cc1", "inhibition": "52.2%"}
{"chemical_string": "Cc1nc(-c2ccc(F)cc2)c(-c2ccc(NC(=O)Nc3ccccc3)cc2)s1", "inhibition": "16.8%"}
{"chemical_string": "CCCCNC(=O)Nc1nc(-c2ccccc2)c(-c2ccccc2)s1", "inhibition": "2.56%"}
{"chemical_string": "Cc1ccc(-c2nc(C)sc2-c2ccc(NC(=O)Nc3c(C(C)C)cccc3C(C)C)cc2)cc1", "inhibition": "11.2%"}
{"chemical_string": "COc1ccc(-c2nc(C)sc2-c2ccc(NC(=O)Nc3cc(OC)c(OC)c(OC)c3)cc2)cc1", "inhibition": "25.4%"}
{"chemical_string": "Cc1nc(-c2ccc(F)cc2)c(-c2ccc(NC(=O)NCCN3CCOCC3)cc2)s1", "inhibition": "29.3%"}
{"chemical_string": "CCCCNC(=O)Nc1nc(-c2ccc(C)cc2)c(-c2ccc([N+](=O)[O-])cc2)s1", "inhibition": "3.86%"}
{"chemical_string": "CC(=O)Nc1ccc(-c2sc(NC(=O)Nc3ccc(F)cc3F)nc2-c2ccc(C)cc2)cc1", "inhibition": "3.06%"}
{"chemical_string": "CCCCNC(=O)Nc1nc(-c2ccc(OC)cc2)c(-c2ccc(NC(C)=O)cc2)s1", "inhibition": "39.5%"}
{"chemical_string": "CCc1cccc(CC)c1NC(=O)Nc1ccc(-c2sc(C)nc2-c2ccc(C)cc2)cc1", "inhibition": "30.9%"}
{"chemical_string": "Cc1nc(-c2ccc(F)cc2)c(-c2ccc(NC(=O)Nc3ccc(F)cc3F)cc2)s1", "inhibition": "4.97%"}
{"chemical_string": "CCc1cccc(CC)c1NC(=O)Nc1ccc(-c2sc(C)nc2-c2ccc(F)cc2)cc1", "inhibition": "46.7%"}
{"chemical_string": "CCCCNC(=O)Nc1nc(-c2ccc(F)cc2)c(-c2ccc(NC(C)=O)cc2)s1", "inhibition": "15.4%"}
{"chemical_string": "CCCCCCCNC(=O)Nc1ccc(-c2nonc2-c2ccc(C)cc2)cc1", "inhibition": "18.6%"}
{"chemical_string": "CCCCNC(=O)Nc1ccc(-c2sc(C)nc2-c2ccc(F)cc2)cc1", "inhibition": "59.9%"}
{"chemical_string": "O=C(Nc1ccc(-c2nonc2-c2ccc(Cl)cc2)cc1)Nc1ccc(F)cc1F", "inhibition": "21.2%"}
{"chemical_string": "CCCCNC(=O)Nc1nc(-c2ccc(Cl)cc2)c(-c2ccc(NS(C)(=O)=O)cc2)s1", "inhibition": "5.63%"}
{"chemical_string": "CCc1cccc(CC)c1NC(=O)Nc1ccc(-c2nonc2-c2ccc(Cl)cc2)cc1", "inhibition": "8.25%"}
{"chemical_string": "CCCCCCCCCCCCNC(=O)Nc1ccc(-c2nonc2-c2ccc(F)cc2)cc1", "inhibition": "50.1%"}
{"chemical_string": "CCc1cccc(CC)c1NC(=O)Nc1ccc(-c2nonc2-c2ccc(C)cc2)cc1", "inhibition": "0.34%"}
{"chemical_string": "CCCCCCCNC(=O)Nc1ccc(-c2sc(C)nc2-c2ccc(OC)cc2)cc1", "inhibition": "22.2%"}
{"chemical_string": "CCCCCCCCCCCCNC(=O)Nc1nc(-c2ccc(F)cc2)c(-c2ccc(Cl)cc2)s1", "inhibition": "1.91%"}
{"chemical_string": "CC(=O)Nc1ccc(-c2sc(NC(=O)Nc3ccc(F)cc3F)nc2-c2ccc(F)cc2)cc1", "inhibition": "23.3%"}
{"chemical_string": "CCCCCCCCCCCCNC(=O)Nc1ccc(-c2nonc2-c2ccc(Cl)cc2)cc1", "inhibition": "18.5%"}
{"chemical_string": "COc1ccc(-c2nc(NC(=O)Nc3ccc(F)cc3F)sc2-c2ccc(NC(C)=O)cc2)cc1", "inhibition": "39%"}
{"chemical_string": "COc1ccc(-c2nc(NC(=O)Nc3ccccc3)sc2-c2ccc(Cl)cc2)cc1", "inhibition": "56.9%"}
{"chemical_string": "CCCCCCCCCCCCNC(=O)Nc1ccc(-c2sc(C)nc2-c2ccc(F)cc2)cc1", "inhibition": "34.5%"}
{"chemical_string": "CCCCCCCNC(=O)Nc1ccc(-c2sc(C)nc2-c2ccc(F)cc2)cc1", "inhibition": "63%"}
{"chemical_string": "CCCCNC(=O)Nc1nc(-c2ccc(C)cc2)c(-c2ccc(Cl)cc2)s1", "inhibition": "36.4%"}
{"chemical_string": "CCCCNC(=O)Nc1nc(-c2ccc(OC)cc2)c(-c2ccc(Cl)cc2)s1", "inhibition": "27.6%"}
{"chemical_string": "CCCCCCCCCCCCNC(=O)Nc1ccc(-c2sc(C)nc2-c2ccc(C)cc2)cc1", "inhibition": "46.2%"}
{"chemical_string": "COc1ccc(-c2nc(C)sc2-c2ccc(NC(=O)Nc3ccccc3)cc2)cc1", "inhibition": "11.4%"}
{"chemical_string": "CCCCNC(=O)Nc1nc(-c2ccc(Cl)cc2)c(-c2ccc([N+](=O)[O-])cc2)s1", "inhibition": "3.02%"}
{"chemical_string": "CCCCCCCCCCCCNC(=O)Nc1nc(-c2ccc(Cl)cc2)c(-c2ccc([N+](=O)[O-])cc2)s1", "inhibition": "1.77%"}
{"chemical_string": "CCc1cccc(CC)c1NC(=O)Nc1ccc(-c2sc(C)nc2-c2ccc(Cl)cc2)cc1", "inhibition": "63.3%"}
{"chemical_string": "CCCCNC(=O)Nc1ccc(-c2nonc2-c2ccc(Cl)cc2)cc1", "inhibition": "23%"}
